# Tested System: Insulin-like growth factor 1 receptor (Homo sapiens, UniProt P08069)
# Sequence (P08069 31-736 limits assumed): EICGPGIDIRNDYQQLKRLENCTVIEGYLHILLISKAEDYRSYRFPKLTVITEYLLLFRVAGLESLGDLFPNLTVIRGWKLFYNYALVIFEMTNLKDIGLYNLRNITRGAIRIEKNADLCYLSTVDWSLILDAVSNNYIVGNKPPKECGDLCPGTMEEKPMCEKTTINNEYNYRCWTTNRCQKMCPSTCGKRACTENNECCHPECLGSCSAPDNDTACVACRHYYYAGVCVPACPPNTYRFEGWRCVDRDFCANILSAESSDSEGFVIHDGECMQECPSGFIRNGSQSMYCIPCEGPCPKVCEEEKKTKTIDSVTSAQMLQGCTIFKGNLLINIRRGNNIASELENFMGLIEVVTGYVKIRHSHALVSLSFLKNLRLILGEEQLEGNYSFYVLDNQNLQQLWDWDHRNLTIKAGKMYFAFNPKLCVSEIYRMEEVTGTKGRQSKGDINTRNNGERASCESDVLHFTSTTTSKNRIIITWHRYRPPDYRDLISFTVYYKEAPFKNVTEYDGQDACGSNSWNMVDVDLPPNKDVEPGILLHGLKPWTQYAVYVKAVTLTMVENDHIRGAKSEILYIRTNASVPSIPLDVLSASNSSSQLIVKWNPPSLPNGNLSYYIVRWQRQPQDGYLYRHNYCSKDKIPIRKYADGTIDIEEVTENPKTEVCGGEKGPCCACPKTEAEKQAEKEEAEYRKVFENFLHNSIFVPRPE
# Sequence (P08069 741-1367 limits assumed): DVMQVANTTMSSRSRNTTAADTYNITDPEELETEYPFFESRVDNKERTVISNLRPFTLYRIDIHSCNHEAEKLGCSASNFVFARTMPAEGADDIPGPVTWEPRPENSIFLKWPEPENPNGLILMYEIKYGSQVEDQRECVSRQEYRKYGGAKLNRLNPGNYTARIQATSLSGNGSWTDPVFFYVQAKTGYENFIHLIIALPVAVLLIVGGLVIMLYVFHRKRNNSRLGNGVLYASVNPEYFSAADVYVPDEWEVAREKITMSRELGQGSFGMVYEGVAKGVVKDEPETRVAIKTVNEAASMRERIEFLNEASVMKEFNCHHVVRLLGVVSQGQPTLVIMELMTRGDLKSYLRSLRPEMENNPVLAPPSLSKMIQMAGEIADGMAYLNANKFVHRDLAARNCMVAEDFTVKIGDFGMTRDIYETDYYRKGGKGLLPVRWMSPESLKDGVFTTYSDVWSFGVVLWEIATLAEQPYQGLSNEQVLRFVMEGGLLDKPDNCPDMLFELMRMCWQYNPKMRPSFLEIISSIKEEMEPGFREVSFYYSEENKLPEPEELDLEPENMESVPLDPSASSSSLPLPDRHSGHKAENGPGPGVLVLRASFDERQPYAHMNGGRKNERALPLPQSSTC
# Procedure Summary: Inhibition of inactive form of IGF-1R (unknown origin) kinase domain incubated for 1 hr by [gamma-33P]ATP assay
Result Type: IC50 (µM)
Lab book: enter the figure in µM, no units written.

Smiles Code: Oc1n[nH]c2nnc(-c3c(-c4ccccc4)nn4ccccc34)cc12
Units: µM
IC50: 10.2

Attention now shifts to the item below.
Param item: Nc1n[nH]c2nnc(-c3c(-c4ccccc4)nn4ccccc34)cc12 ; param system: Insulin-like growth factor 1 receptor (Homo sapiens, UniProt P08069); output IC50: 32.5

###

# Procedure Summary: Inhibition of inactive form of human Insulin receptor (978 to 1283 residues) C981S mutant kinase domain expressed in baculovirus infected Sf9 cells incubated for 1 hr by [gamma-33P]ATP assay
Result Type: pIC50
Scale explanation: pIC50 corresponds to minus log10 of a concentration expressed in moles per litre.

Smiles Code: Nc1n[nH]c2nnc(-c3c(-c4ccccc4)nn4ccccc34)cc12
pIC50: 5.27

Reported pIC50 of Oc1n[nH]c2nnc(-c3c(-c4ccccc4)nn4ccccc34)cc12 : 5.74
